# Tested on: SARS-CoV-2 B.1.1.7 lineage
# measurement description: microbe, parasite or virus in culture
# Assay type: cell-based
# experimental setup: Severe acute respiratory syndrome coronavirus 2, 96 h; read-out: A549-dual_ACE2_TMPRSS2 (EC50)
readout type: EC50

For reference, reported EC50 for N#CC(NC(=O)C1[C@@H]2[C@H](CN1C(=O)c1cnn(-c3ccccc3C(F)(F)F)c1)[C@H]1C[C@@H]2[C@H](F)C1)c1cncc2ccccc12 (stereo partly drawn) stands at ≥ 1 µM

---

# test system: SARS-Cov-2 3CLpro (Severe acute respiratory syndrome coronavirus 2, UniProt P0DTD1)
# Construct: 3CLpro was added using a Multidrop Combi
# measurement description: SARS-Cov-2 3CLpro protease assay (SAMDI-MS)
# Assay type: biochemical
# experimental setup: bound given in table footnote; read-out: SARS-Cov-2 activity (footnote of Table 1)
pIC50: −log10 of the molar value.
Reported pIC50 values for the following compounds.

[
  {
    "compound": "CC(C)(C)[C@H](NC(=O)C(F)(F)F)C(=O)N1C[C@@H]2[C@H]3C[C@@H]([C@@H]2[C@H]1C(=O)NC(C#N)c1cncn1-c1ccccc1)[C@H](F)C3 (some centres unmarked)",
    "test system": "SARS-Cov-2 3CLpro (Severe acute respiratory syndrome coronavirus 2, UniProt P0DTD1)",
    "value": "< 6.30"
  }
]

Could you now consider this next compound?
For reference, reported pIC50 for CC(C)(C)[C@H](NC(=O)C(F)(F)F)C(=O)N1C[C@@H]2[C@H]3C[C@@H]([C@@H]2[C@H]1C(=O)NC1(C#N)CCCc2ccncc21)[C@H](F)C3 (some centres unmarked) stands at < 5.70
